experiment: The drug is tested on Bacteroides vulgatus strain: ATCC8482 for biotransformation. The drug concentrations were measured before and after a 12-h incubation by liquid-chromatography-coupled mass spectrometry (LC–MS); conditions: phocaeicola vulgatus, 2 µM
measured attribute: Bacterial Biotransformation

Cc1cc2c(cc1S(N)(=O)=O)S(=O)(=O)CCC2 ... Compound NOT metabolized
C[C@H]1O[C@@H](O[C@H]2[C@@H](O)C[C@H](O[C@H]3[C@@H](O)C[C@H](O[C@H]4CC[C@@]5(C)[C@H](CC[C@@H]6[C@@H]5C[C@@H](O)[C@]5(C)[C@@H](C7=CC(=O)OC7)CC[C@]65O)C4)O[C@@H]3C)O[C@@H]2C)C[C@H](O)[C@@H]1O ... Compound metabolized
CN1CCN(C2=Nc3ccccc3Oc3ccc(Cl)cc32)CC1.O=C(O)CCC(=O)O [LOXAPINE SUCCINATE] ... Compound NOT metabolized
CCN(CC)CCNC(=O)c1ccc(NC(C)=O)cc1 [ACECAINIDE] ... Compound NOT metabolized
CCOC(=O)[C@H](CCc1ccccc1)N[C@@H](C)C(=O)N1[C@H](C(=O)O)C[C@@H]2CCC[C@@H]21 ... Compound metabolized

Take each entry in turn and give its Bacterial Biotransformation.
1. CC(C)(C)N.CCC[C@H](N[C@@H](C)C(=O)N1[C@H](C(=O)O)C[C@@H]2CCCC[C@@H]21)C(=O)OCC
2. CCOc1cc(CC(=O)N[C@@H](CC(C)C)c2ccccc2N2CCCCC2)ccc1C(=O)O [REPAGLINIDE]

Reply |
1. Compound NOT metabolized
2. Compound NOT metabolized

###

settings: bacteroides thetaiotaomicron, 12 h, 2 µM
Description: The drug is tested on Bacteroides thetaiotaomicron strain: 3731 for biotransformation. The drug concentrations were measured before and after a 12-h incubation by liquid-chromatography-coupled mass spectrometry (LC–MS)
measured attribute: Bacterial Biotransformation

# example entries with known answers
COc1ccccc1OCCNCC(O)COc1cccc2[nH]c3ccccc3c12 (stereo unspecified) ... Compound metabolized
CN1CC(=O)N2[C@H](c3ccc4c(c3)OCO4)c3[nH]c4ccccc4c3C[C@@H]2C1=O ... Compound metabolized
CC(C)(C#N)c1cc(Cn2cncn2)cc(C(C)(C)C#N)c1 ... Compound NOT metabolized
Cc1ccc(NC(=O)c2ccc(CN3CCN(C)CC3)cc2)cc1Nc1nccc(-c2cccnc2)n1 ... Compound NOT metabolized
CN1CCc2cccc3c2[C@H]1Cc1ccc(O)c(O)c1-3 ... Compound NOT metabolized
CC(C)(C)NC(=O)[C@H]1CC[C@H]2[C@@H]3CC[C@H]4NC(=O)C=C[C@]4(C)[C@H]3CC[C@]12C [FINASTERIDE] ... Compound NOT metabolized
CC[C@H](C)C(=O)O[C@H]1CCC=C2C=C[C@H](C)[C@H](CC[C@@H]3C[C@@H](O)CC(=O)O3)[C@H]21 ... Compound metabolized
OC(CCN1CCCCC1)(c1ccccc1)C1CC2C=CC1C2 (stereo unspecified) ... Compound NOT metabolized

Take each entry in turn and give its Bacterial Biotransformation.
1. O=C1CN2Cc3c(ccc(Cl)c3Cl)N=C2N1 [ANAGRELIDE]
2. Clc1cccc(Cl)c1N=C1NCCN1
3. CC1OC(OC2C(O)CC(OC3C(O)CC(OC4CCC5(C)C(CCC6C5CCC5(C)C(C7=CC(=O)OC7)CCC65O)C4)OC3C)OC2C)CC(O)C1O (stereo unspecified)
4. CCC(C)n1ncn(-c2ccc(N3CCN(c4ccc(OCC5COC(Cn6cncn6)(c6ccc(Cl)cc6Cl)O5)cc4)CC3)cc2)c1=O (stereo unspecified)
5. c1ccc([C@H]2CN3CCSC3=N2)cc1
6. CC(C)c1nc(CN(C)C(=O)N[C@H](C(=O)N[C@@H](Cc2ccccc2)C[C@H](O)[C@H](Cc2ccccc2)NC(=O)OCc2cncs2)C(C)C)cs1

Reply |
1. Compound NOT metabolized
2. Compound metabolized
3. Compound NOT metabolized
4. Compound NOT metabolized
5. Compound NOT metabolized
6. Compound NOT metabolized

Take each entry in turn and give its Bacterial Biotransformation.
1. Clc1ccc(Cn2c(CN3CCCC3)nc3ccccc32)cc1
2. O=C([O-])C[C@H](O)C[C@H](O)/C=C/c1c(C2CC2)nc2ccccc2c1-c1ccc(F)cc1.O=C([O-])C[C@H](O)C[C@H](O)/C=C/c1c(C2CC2)nc2ccccc2c1-c1ccc(F)cc1.[Ca+2]

Reply |
1. Compound NOT metabolized
2. Compound NOT metabolized
